TGT: human calcitonin receptor (CTR) and RAMP3 (AMY3) (Homo sapiens, UniProt O60896+P30988)
Sequence (O60896 24-148): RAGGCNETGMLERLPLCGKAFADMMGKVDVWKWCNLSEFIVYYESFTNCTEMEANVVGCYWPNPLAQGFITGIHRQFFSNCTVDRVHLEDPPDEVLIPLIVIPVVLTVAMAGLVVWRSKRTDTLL
Sequence (P30988 25-474): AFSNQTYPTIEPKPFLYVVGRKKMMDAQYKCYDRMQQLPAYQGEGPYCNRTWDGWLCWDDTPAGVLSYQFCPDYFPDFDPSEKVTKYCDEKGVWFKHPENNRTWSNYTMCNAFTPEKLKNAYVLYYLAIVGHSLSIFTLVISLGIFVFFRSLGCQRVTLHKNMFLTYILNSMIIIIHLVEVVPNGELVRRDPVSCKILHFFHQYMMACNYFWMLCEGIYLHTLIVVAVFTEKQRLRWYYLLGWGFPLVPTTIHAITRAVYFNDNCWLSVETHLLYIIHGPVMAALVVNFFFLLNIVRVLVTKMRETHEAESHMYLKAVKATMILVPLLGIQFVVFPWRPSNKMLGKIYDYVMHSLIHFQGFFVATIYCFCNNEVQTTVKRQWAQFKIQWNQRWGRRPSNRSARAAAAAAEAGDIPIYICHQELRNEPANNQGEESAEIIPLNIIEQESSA
TEST_METHOD_NOTES: Amylin Receptor cAMP Assay I
Format: cell-based
RECORDED_CONDITIONS: COS-7/AMY3 cells, cAMP Hi-range Kit, read-out: Amylin Receptor cAMP Stimulation Activity: EC50
// assign yes (1) if EC50 falls strictly below 0.08 µM, else no (0) (ties count as no (0))

For orientation, consider the following solved cases.
• CC(C)c1nnc(-c2c(CCc3ccc(F)cc3)nc3c(c2-c2ccc(C(=O)NCc4ccc(F)c(F)c4)s2)C(=O)N2CCC[C@@H]32)o1 = yes (1)
• Cc1nnc(-c2c(CCc3ccc(F)cc3)nc3c(c2-c2ccc(C(=O)N[C@@H]4CCc5ccccc54)s2)C(=O)NC[C@H]3C(C)C)o1 = no (0)
• Cc1nnc(-c2c(COC3CCCCC3)nc3c(c2-c2ccc(C(=O)NCc4ccc(F)c(F)c4)s2)C(=O)N2CCC[C@@H]32)o1 = no (0)

Now consider the entry below.
INPUT: I wonder whether "Cc1nnc(-c2c(CCc3ccc(F)cc3)nc3c(c2-c2ccc(C(=O)NCc4ccc(F)c(F)c4)s2)C(=O)N[C@@H]3C(C)C)o1" has EC50 below 0.08 µM. Can you tell?
OUTPUT: yes (1)
